# ASSAY_TARGET: MELK (Homo sapiens, UniProt Q14680)
# Sequence (Q14680 whole entry, looked up): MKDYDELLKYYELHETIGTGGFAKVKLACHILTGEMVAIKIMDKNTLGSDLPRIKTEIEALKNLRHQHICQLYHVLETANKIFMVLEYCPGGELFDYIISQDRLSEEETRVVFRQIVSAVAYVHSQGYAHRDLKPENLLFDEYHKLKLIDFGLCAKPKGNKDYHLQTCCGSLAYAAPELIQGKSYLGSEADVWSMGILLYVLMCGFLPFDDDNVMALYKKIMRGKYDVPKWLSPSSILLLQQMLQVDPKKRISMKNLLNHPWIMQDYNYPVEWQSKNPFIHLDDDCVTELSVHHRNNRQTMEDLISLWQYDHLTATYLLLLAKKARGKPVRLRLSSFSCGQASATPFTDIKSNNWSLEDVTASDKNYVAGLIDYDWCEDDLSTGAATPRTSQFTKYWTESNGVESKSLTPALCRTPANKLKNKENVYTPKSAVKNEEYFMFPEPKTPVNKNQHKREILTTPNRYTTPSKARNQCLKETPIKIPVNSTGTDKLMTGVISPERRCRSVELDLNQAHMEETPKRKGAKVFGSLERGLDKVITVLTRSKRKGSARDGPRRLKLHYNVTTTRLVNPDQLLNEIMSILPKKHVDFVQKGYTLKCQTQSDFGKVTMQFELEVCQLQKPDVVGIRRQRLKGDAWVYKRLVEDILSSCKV
# EXPERIMENT_NOTES: Kinase assay: MELK activity, phosphorylation of FITC-labeled histone H3 peptide measured by IMAP fluorescence polarization
# Type: biochemical
# MEASUREMENT_CONTEXT: MELK kinase assay, IMAP fluorescence polarization, 50 micro-M ATP; read-out: IC50 (μM) (kinase assay)
Counter-ions that a name gives are not always drawn.
# reported IC50; entries follow
Show the value, then the unit it is measured in.

Enquiry: Recorded IC50 of CN(C)[C@H]1CC[C@H](Nc2c(C(=O)C3CC3)cnc3ccc(-c4cc(F)c(O)c(Cl)c4)cc23)CC1 , please.
Return: 0.0029 µM

Enquiry: For the compound shown here, CN1CCC(n2cc(Nc3c(C(=O)C(C)(C)C)cnc4ccc(-c5cc(Cl)c(O)c(Cl)c5)cc34)cn2)CC1 [Example 931, hydrochloride] , give the reported IC50.
Return: 0.0062 µM

Enquiry: Any idea what its IC50 is? The compound is CC(=O)c1cnc2ccc(-c3cc(F)c(O)c(Cl)c3)cc2c1Nc1ccc(S(=O)(=O)N2CCN(C)CC2)cc1 [Example 894, hydrochloride]
Return: 0.039 µM

----------
# key: entry, value: IC50
# Test system: T47D cells
# EXPERIMENT_NOTES: Cell-based assay: anti-proliferative activity, Cell Counting Kit-8, 72 hours (T47D)
# MEASUREMENT_CONTEXT: Homo sapiens, T47D, 72 h
Counter-ions that a name gives are not always drawn.
Answer format: numeric, µM implied, no suffix.

These recorded examples may help you get a feel for the data.
| COMPOUND | ASSAY_TARGET | RESULT |
| --- | --- | --- |
| NCCOc1ccc(Nc2c(C(=O)C3CC3)cnc3ccc(-c4cc(Cl)c(O)c(Cl)c4)cc23)cn1 | T47D cells | 0.099 |
| CC(=O)c1cnc2ccc(-c3cc(Cl)c(O)c(Cl)c3)cc2c1N[C@H]1CC[C@H](C(=O)N2CCN(C)CC2)CC1 [Example 898, hydrochloride] | T47D cells | 0.44 |
| O=C(c1cnc2ccc(-c3cc(F)c(O)c(Cl)c3)cc2c1N1CCN(CCN2CCCC2)C(=O)C1)C1CC1 | T47D cells | 1.1 |
| CC(=O)c1cnc2ccc(-c3cc(Cl)c(O)c(Cl)c3)cc2c1Nc1cc(CCN2CCCC2)cnc1C | T47D cells | 4.5 |
| CN(C)CCNc1ccc(Nc2c(C(=O)C3CC3)cnc3ccc(-c4cc(Cl)c(O)c(Cl)c4)cc23)cn1 | T47D cells | 0.16 |

Enquiry: Value lookup for IC50; key = CC(N)C(=O)N[C@H]1CC[C@H](Nc2c(C(=O)C(C)(C)C)cnc3ccc(-c4cc(Cl)c(O)c(Cl)c4)cc23)CC1 (stereo partly drawn) [Example 928, hydrochloride]
Return: 1.4

----------
# ASSAY_TARGET: MELK (Homo sapiens, UniProt Q14680)
# EXPERIMENT_NOTES: Kinase assay: MELK activity, phosphorylation of FITC-labeled histone H3 peptide measured by IMAP fluorescence polarization
# Type: biochemical
# MEASUREMENT_CONTEXT: read-out: IC50 (μM) (kinase assay)
# IC50 per record follows
# output: bare number, implied unit µM

Solved cases below.
| MOLECULE | IC50 (µM) |
| --- | --- |
| COc1cc(-c2ccc3ncc(C(=O)C4CC4)c(Nc4cnc(N5CCC(N)C5)nc4)c3c2)cc(Cl)c1O (centres unmarked) [Example 582] | 0.0031 |
| CN(C)C1CCN(Cc2ccc(Nc3c(C(=O)C4CC4)cnc4ccc(-c5cc(F)c(O)c(Cl)c5)cc34)cc2)C1 (centres unmarked) [Example 696] | 0.012 |
| COc1cc(-c2ccc3ncc(C(C)=O)c(N[C@H]4CC[C@H](CCN(C)C)CC4)c3c2)cc(Cl)c1O [Example 738] | 0.0026 |

Enquiry: I am curious: what IC50 value has been reported for O=C(c1cnc2ccc(-c3cc(Cl)c(O)c(Cl)c3)cc2c1Nc1ccc(NC2CCCNC2)nc1)C1CC1 (centres unmarked) [Example 610] ?
Return: 0.0017

Enquiry: Fill blank: measured IC50 of the molecule COc1cc(-c2ccc3ncc(C(=O)C4CC4)c(-c4cnc(N5CCN(C)CC5)nc4)c3c2)cc(Cl)c1O [Example 475] is ____.
Return: 0.072

Origin of values: patent US9120749B2
